# TESTED ON: mouse Claudine18.2 (mouse) (UniProt P56857)
# PROCEDURE SUMMARY: FACS on CHOK1-m18.2 cells
MEASURE: FACS MFI

Ab20 (antibody, V domains shown) VH: EVMLVESGGGLVKPGGSLKLSCVASGFTFSSYTMSWVRQTPEKRLEWVATIIGGYGNTYYSDSVKGRITISRDSAKNTLYLQMISLRSEDTALYYCTRLGQTQRNAMDYWGQGTSVTVSS VL: DILMTQSPSSLSVSAGEKVTMNCKSSQSLLNSGNQKNYLAWYQQKPGQPPKLLIYGASTRESGVPDRFTGSGSGTDFTLTISSVQAEDLAVYYCQNDYYYPFTFGAGTKLEL = 13800

# FACS MFI of Ab34 (antibody, V domains shown) VH: EVLLQQSGPELVKPGASVKIPCKASGYTFSDYNMDWVKQSHGKSLEWIGHINPNNDNTIYNQKFKGKATLTVDKSSNTAYMDLRSLSSEDTAVYYCARGAYYGNSMDYWGQGTSVTVSS VL: DIVMTQSPSSLTVTAGERVTMSCKSSQSLLNGGNQRNYLTWYQQKPGQSPKLLIYWASTWESGVPDRFTGSGSGTDFTLTISSVQAEDLAVYYCQNAYFYPYTFGGGTKLEIK = 10700
